Just for reference, paper PMC12951562 is where these values come from.

Could you please report measured percent of DMSO vehicle control at 10 µM for the items listed next?
- Measured On: HSH2D (Homo sapiens, UniProt Q96JZ2)
- Construct: the DNA-tagged SH2 domain concentrations used in this study were <0.1 nM; made in house; host or cells: HEK293 (transient transfection, unpurified extract)
- Sequence (Q96JZ2 34-125 limits assumed): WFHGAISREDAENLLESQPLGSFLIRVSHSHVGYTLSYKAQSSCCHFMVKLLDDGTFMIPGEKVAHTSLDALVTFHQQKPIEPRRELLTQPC
- Assay Procedure: biochemical
- Format: binding
- Test Settings: read-out: percent of DMSO vehicle control
Non-standard residues stand in square brackets, D forms with d. Residues, ends and D or L forms follow the SMILES beside them. *: point of attachment. pY = N[C@@H](Cc1ccc(OP(=O)(O)O)cc1)C(=O)O; Caffeoyl = O=C(/C=C/c1ccc(O)c(O)c1)*

Compound: CC(=O)N1CC[C@H]2CC[C@@H](C(=O)N[C@@H](CCC(N)=O)C(=O)NC(c3ccccc3)c3ccccc3)N2C(=O)[C@@H](NC(=O)c2cc3cc(C(F)(F)P(=O)(O)O)ccc3[nH]2)C1 [SI-109]
Measured Value: 154%
//
Compound: CC(=O)N[C@@H](Cc1ccc(CP(=O)(O)O)cc1)C(=O)NC1(C(=O)N[C@@H](CC(N)=O)C(=O)NCCCc2c(O)ccc3ccccc23)CCCCC1 [CGP78850]
Measured Value: 8.1%
//
Compound: CC[C@H](C)[C@H](NC(=O)[C@H](CCC(=O)O)NC(=O)[C@H](CCC(=O)O)NC(=O)[C@H](Cc1ccc(OP(=O)(O)O)cc1)NC(=O)/C=C/c1ccc(O)c(O)c1)C(=O)N[C@@H](CCC(=O)O)C(=O)O [Caffeic acid-pYEEIE] (Caffeoyl-[pY]EEIE-OH)
Measured Value: 80.3%

Kindly review the next compound as well.
Using the record for NC(=O)CC[C@H](NC(=O)[C@@H]1CC[C@@H]2CCN(C(=O)CCCCCC#Cc3cccc4c3CN(C3CCC(=O)NC3=O)C4=O)C[C@H](NC(=O)c3cc4cc(C(F)(F)P(=O)(O)O)ccc4[nH]3)C(=O)N21)C(=O)NC(c1ccccc1)c1ccccc1 (stereo partly shown) [SD-36] , report its percent of DMSO vehicle control at 10 µM.
72.7%

====

Could you please report measured remaining activity at 10 µM for the items listed next?
- Measured On: SH2B (SH2B1) (Homo sapiens)
- Construct: made in house; host or cells: HEK293 (transient transfection), unpurified extract
- Assay Procedure: biochemical
- Format: binding
- Test Settings: primary screen, 10 μM; read-out: percent of DMSO vehicle control
One number for each entry, in %.

Would you please look over these solved cases?
Compound String: CC(C)(C)[C@H](NC(=O)/C=C/c1ccc(OP(=O)(O)O)cc1)C(=O)N1CCC[C@H]1C(=O)N(c1ccccc1)c1ccc(I)cc1
remaining activity at 10 µM / %: 78.1

Compound String: O=C(COc1ccc2cc(C(=O)Nc3ccccc3)ccc2c1)NCc1ccc(OP(=O)(O)O)c(OP(=O)(O)O)c1
remaining activity at 10 µM / %: 92.7

Compound String: C/C(=C\C(=O)N[C@H](C(=O)N1CCC[C@H]1C(=O)N(c1ccccc1)c1ccc(I)cc1)C(C)(C)C)c1ccc(OP(=O)(O)O)cc1
remaining activity at 10 µM / %: 22.6

Kindly review the next compound as well.
Using the record for O=C(CCl)Nc1cccc(CNC(=O)[C@H](Cc2ccc(OP(=O)(O)O)cc2)NC(=O)Cc2ccc(F)cc2)c1 , report its remaining activity at 10 µM.
105
